# Tested on: Mythimna separata
# measurement-notes: Larvicidal activity against fourth-instar larval stage of Mythimna separata (Oriental armyworm) in compound-pretreated corn leaves assessed as mortality at 2.5 mg/l at 25 +/-1 degC after 4 days
# Type: functional
Provide the reported mortality at 2.5 µg/mL of each item.
Respond with the bare value in %.

Asked: What does the record list as mortality at 2.5 µg/mL for `CC(C)(C)O/N=C/c1ccc(NC(=O)NC(=O)c2c(F)cccc2F)cc1` ?
Given back: 100

Asked: What does the record list as mortality at 2.5 µg/mL for `C#CCO/N=C/c1ccc(NC(=O)NC(=O)c2c(F)cccc2F)cc1` ?
Given back: 10

Asked: What does the record list as mortality at 2.5 µg/mL for CC1CCC(C(C)C)C(O/N=C/c2ccc(NC(=O)NC(=O)c3c(F)cccc3F)cc2)C1 (stereo not given) ?
Given back: 100

Asked: What does the record list as mortality at 2.5 µg/mL for `CC(C)O/N=C/c1ccc(NC(=O)NC(=O)c2c(F)cccc2F)cc1` ?
Given back: 100

Asked: What does the record list as mortality at 2.5 µg/mL for `COC(=O)CO/N=C/c1ccc(NC(=O)NC(=O)c2c(F)cccc2F)cc1` ?
Given back: 0

Asked: What does the record list as mortality at 2.5 µg/mL for `O=C(NC(=O)c1c(F)cccc1F)Nc1ccc(/C=N/OCCCl)cc1` ?
Given back: 55

Asked: What does the record list as mortality at 2.5 µg/mL for CCCC(C)O/N=C/c1ccc(NC(=O)NC(=O)c2c(F)cccc2F)cc1 (stereo not given) ?
Given back: 0

Asked: What does the record list as mortality at 2.5 µg/mL for `O=C(NC(=O)c1c(F)cccc1F)Nc1ccc(/C=N/OCC(F)(F)F)cc1` ?
Given back: 100

Asked: What does the record list as mortality at 2.5 µg/mL for CCC(C)O/N=C/c1ccc(NC(=O)NC(=O)c2c(F)cccc2F)cc1 (stereo not given) ?
Given back: 30

Asked: What does the record list as mortality at 2.5 µg/mL for O=C(NC(=O)c1c(F)cccc1F)Nc1ccc(CO/N=C(/c2ccc(Cl)cc2)C2CC2)cc1 [FLUCYCLOXURON] ?
Given back: 50

Asked: What does the record list as mortality at 2.5 µg/mL for `O=C(NC(=O)c1c(F)cccc1F)Nc1ccc(/C=N/OC(C(F)(F)F)C(F)(F)F)cc1` ?
Given back: 100

Asked: What does the record list as mortality at 2.5 µg/mL for `CCCO/N=C/c1ccc(NC(=O)NC(=O)c2c(F)cccc2F)cc1` ?
Given back: 0

Asked: What does the record list as mortality at 2.5 µg/mL for `O=C(NC(=O)c1c(F)cccc1F)Nc1ccc(/C=N/OCC2CC2)cc1` ?
Given back: 90

Asked: What does the record list as mortality at 2.5 µg/mL for `O=C(NC(=O)c1c(F)cccc1F)Nc1ccc(/C=N/OCCF)cc1` ?
Given back: 0

Asked: What does the record list as mortality at 2.5 µg/mL for `CC(C)CO/N=C/c1ccc(NC(=O)NC(=O)c2c(F)cccc2F)cc1` ?
Given back: 0

All figures here come from ChEMBL document CHEMBL3045590.
